Protein target, amino acids: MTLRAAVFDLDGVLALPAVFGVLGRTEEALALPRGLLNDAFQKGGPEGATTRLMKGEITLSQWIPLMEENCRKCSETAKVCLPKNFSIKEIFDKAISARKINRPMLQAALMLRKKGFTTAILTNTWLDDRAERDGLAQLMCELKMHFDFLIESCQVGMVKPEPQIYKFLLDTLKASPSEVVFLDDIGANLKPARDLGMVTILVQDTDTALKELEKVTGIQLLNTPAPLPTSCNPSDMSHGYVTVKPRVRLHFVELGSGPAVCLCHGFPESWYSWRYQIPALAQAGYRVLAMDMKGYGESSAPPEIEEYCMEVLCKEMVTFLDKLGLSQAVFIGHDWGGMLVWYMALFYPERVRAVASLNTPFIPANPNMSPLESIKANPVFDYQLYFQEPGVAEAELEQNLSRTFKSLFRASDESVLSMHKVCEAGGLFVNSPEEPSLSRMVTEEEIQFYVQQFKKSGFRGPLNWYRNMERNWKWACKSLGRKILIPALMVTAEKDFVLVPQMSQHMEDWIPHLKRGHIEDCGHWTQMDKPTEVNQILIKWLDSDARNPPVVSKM
assay_readout: IC50 (µM)
Dear colleague, please return just the value in µM, with no unit written.

What value of IC50 has been reported for the following compound? O=C(O)CCCc1nc(-c2ccc(Cl)c(Cl)c2)c(-c2ccccc2)o1 [Compound 2]
9.5
